Listed sequences paired with reported self-splicing fitness (ln)
- Experiment notes: self-splicing fitness, log relative to wild type (ln ratio); higher = more splicing; Tetrahymena group I intron in knt gene, E. coli kanamycin selection, DiMSum; sequences stand for … in CUCUCU…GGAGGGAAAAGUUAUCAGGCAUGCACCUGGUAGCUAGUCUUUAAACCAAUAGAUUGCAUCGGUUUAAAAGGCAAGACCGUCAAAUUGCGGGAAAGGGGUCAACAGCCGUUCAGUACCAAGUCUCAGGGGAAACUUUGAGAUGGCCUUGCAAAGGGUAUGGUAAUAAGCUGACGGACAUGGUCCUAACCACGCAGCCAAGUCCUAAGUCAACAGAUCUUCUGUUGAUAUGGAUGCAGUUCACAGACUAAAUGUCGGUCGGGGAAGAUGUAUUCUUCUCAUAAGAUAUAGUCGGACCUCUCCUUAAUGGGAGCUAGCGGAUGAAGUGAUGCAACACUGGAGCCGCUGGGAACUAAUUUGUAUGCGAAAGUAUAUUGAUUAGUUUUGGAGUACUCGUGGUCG;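 also: selection with 25 µg/mL kanamycin versus none on LB agar overnight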
- Cond: 37 °C
Endpoint name: self-splicing fitness (ln)

UGGAAGCAAUAUUACGAGAG: -3.3
GACCAGCAAUAUUACGUCGG: -1.98
UUUCAGCAAUAUUACGGGAU: -1.64
GUUGAGCAAUAUUACGUUCC: -1.31
GCAGAGCAAUAUUACGACGU: -1.5
GGUGAGCAAUAUUACGUUAU: -1.84
CCUCAGCAAUAUUACGAUCU: -2.79
AAGAAGCAAUAUUACGGAAU: -1.85
AGAAAGCAAUAUUACGGCCG: -0.28
GUCAAGCAAUAUUACGUCGA: -4.19
AUCCAGCAAUAUUACGGCGG: -0.327
CACCAGCAAUAUUACGACUC: -1.62
CGAGAGCAAUAUUACGUCGG: -0.79
UCUCAGCAAUAUUACGGAUU: -1.15
AUACAGCAAUAUUACGUGCC: -0.689
UCAAAGCAAUAUUACGAGAC: -2.76
AUAGAGCAAUAUUACGGGUG: -2.58
AAGAAGCAAUAUUACGGAUC: 0.142
GAGAAGCAAUAUUACGUGGA: -1.81
UUAAAGCAAUAUUACGCGUU: -1.49
CCAGAGCAAUAUUACGUCAG: -1.6
GGUGAGCAAUAUUACGCUGC: -2.65
UAACAGCAAUAUUACGGGGG: -1.9
GGAAAGCAAUAUUACGAGGG: -2.54
ACGGAGCAAUAUUACGAACG: -0.693

====

- Experiment notes: self-splicing fitness, log relative to wild type (ln ratio); higher = more splicing; Tetrahymena group I intron in knt gene, E. coli kanamycin selection, DiMSum; sequences stand for … in CUCUCU…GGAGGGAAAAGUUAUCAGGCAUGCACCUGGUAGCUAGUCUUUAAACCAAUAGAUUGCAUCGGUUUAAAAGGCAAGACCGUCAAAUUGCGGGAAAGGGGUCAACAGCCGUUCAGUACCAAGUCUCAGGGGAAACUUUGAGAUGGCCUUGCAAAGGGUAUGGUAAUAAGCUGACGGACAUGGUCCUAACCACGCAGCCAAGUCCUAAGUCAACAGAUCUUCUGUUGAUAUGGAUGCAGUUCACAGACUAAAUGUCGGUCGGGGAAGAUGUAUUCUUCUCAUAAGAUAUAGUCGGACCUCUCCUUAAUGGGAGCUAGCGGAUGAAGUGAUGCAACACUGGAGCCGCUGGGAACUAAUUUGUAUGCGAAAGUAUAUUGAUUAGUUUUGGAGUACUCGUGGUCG
- Cond: 30 °C
Classification field: enter Condition met for self-splicing fitness (ln) values not below -3, Condition not met for values below it.

AGGCAGCAAUAUUACGAGCC: Condition met
AUCGAGCAAUAUUACGAAUU: Condition not met
UCGCAGCAAUAUUACGUAGU: Condition met
AGCCAGCAAUAUUACGCGAG: Condition met
GGACAGCAAUAUUACGCGGC: Condition not met
CCCAAGCAAUAUUACGUUGU: Condition not met
CUAUAGCAAUAUUACGGUCG: Condition met
UAGAAGCAAUAUUACGGAGU: Condition not met
GCUUAGCAAUAUUACGUCAU: Condition met
CGAGAGCAAUAUUACGACGU: Condition met
UCGUAGCAAUAUUACGACGG: Condition met
UAUGAGCAAUAUUACGCACA: Condition met
ACACAGCAAUAUUACGUAUG: Condition met
CUGCAGCAAUAUUACGCUUU: Condition not met
AAGCAGCAAUAUUACGUUUC: Condition not met
UCAUAGCAAUAUUACGGUGU: Condition not met
AAUGAGCAAUAUUACGAAUU: Condition met
GUCCAGCAAUAUUACGAAAG: Condition not met
AGAUAGCAAUAUUACGGUGU: Condition met
